Entries and their measured pIC50 follow.
System: EA.hy 926
Test: Cytotoxicity against 2D culture of human EAhy926 cells measured after 72 hrs by MTT assay
Format: cell-based
Conditions: EA.hy 926, 72 h
pIC50: −log10 of the molar value.

{"molecule": "COc1cc2c(c(OC)c1OC)-c1ccc(OC)c(=O)cc1[C@@H](NC(C)=O)CC2 [COLCHICINE]", "experimental_target": "EA.hy 926", "measured_parameter": "pIC50", "observed_value": "< 6.10"}
{"molecule": "COc1cc2c(c(OC)c1OC)-c1cc3cc(CO)oc3cc1C(O)CC2 (stereo not drawn)", "experimental_target": "EA.hy 926", "measured_parameter": "pIC50", "observed_value": "< 6.10"}

Req: Query pIC50 on EA.hy 926 for "COc1cc2c(c(OC)c1OC)-c1cc3cc(CO)oc3cc1C(=O)CC2"
Resp: < 6.10
